Where a SMILES comes first, the peptide text is derived from it. The star is where a group is joined. X1 = NS(=O)(=O)c1ccc(CO/N=C/C(=O)*)cc1
Reported Ki, Carbonic anhydrase 9 (Homo sapiens, UniProt Q16790).
recorded.metric: Ki (nM)

I. CC(C)C[C@H](NC(=O)[C@H](CO)NC(=O)/C=N/OCc1ccc(S(N)(=O)=O)cc1)C(=O)N1CCC[C@H]1C(=O)N[C@@H](Cc1ccccc1)C(N)=O (X1-SLPF-NH2)
II. CC(C)C[C@H](NC(=O)[C@H](CO)NC(=O)/C=N/OCc1ccc(S(N)(=O)=O)cc1)C(=O)N1CCC[C@H]1C(N)=O
III. C#Cc1ccc(S(N)(=O)=O)cc1
IN: Going from lowest to highest recorded Ki, rank the entries listed above. // format: requested-order list of labels
OUT: III, I, II
(III: 150 nM, I: 936 nM, II: 2800 nM)

---

Where a SMILES comes first, the peptide text is derived from it. The star is where a group is joined. X2 = NS(=O)(=O)c1ccc(CCNC(=O)Cn2cc(COC(=O)*)nn2)cc1; X1 = NS(=O)(=O)c1ccc(CO/N=C/C(=O)*)cc1
Reported Ki, Carbonic anhydrase 9 (Homo sapiens).
recorded.metric: Ki (nM)

>  <compound>
CC(C)C[C@H](NC(=O)[C@H](CO)NC(=O)/C=N/OCc1ccc(S(N)(=O)=O)cc1)C(=O)N1CCC[C@H]1C(=O)N[C@@H](Cc1ccccc1)C(=O)N[C@H](C(=O)N[C@H](C(=O)N[C@@H](Cc1ccc(O)cc1)C(=O)N[C@@H](CC(N)=O)C(N)=O)C(C)C)[C@@H](C)O (X1-SLPFTVYN-NH2)

>  <readout.unit>
nM

>  <Ki>
1370

$$$$
>  <compound>
NC(=O)[C@H](Cc1ccc(O)cc1)NC(=O)[C@H](Cc1ccc(O)cc1)NC(=O)[C@H](Cc1ccccc1)NC(=O)[C@H](Cc1c[nH]c2ccccc12)NC(=O)[C@H](Cc1ccccc1)NC(=O)[C@H](Cc1ccccc1)NC(=O)[C@@H](N)CCCCNC(=O)OCc1cn(CC(=O)NCCc2ccc(S(N)(=O)=O)cc2)nn1 (H-K(X2)FFWFYY-NH2)

>  <readout.unit>
nM

>  <Ki>
104

$$$$
>  <compound>
NOCc1ccc(S(N)(=O)=O)cc1

>  <readout.unit>
nM

>  <Ki>
844

$$$$
>  <compound>
CC(C)C[C@H](NC(=O)[C@H](CCC(N)=O)NC(=O)[C@H](Cc1ccc(O)cc1)NC(=O)[C@H](Cc1ccccc1)NC(=O)[C@@H](N)CCCCNC(=O)OCc1cn(CC(=O)NCCc2ccc(S(N)(=O)=O)cc2)nn1)C(=O)N[C@@H](Cc1ccc(O)cc1)C(=O)N[C@@H](Cc1ccccc1)C(N)=O (H-K(X2)FYQLYF-NH2)

>  <readout.unit>
nM

>  <Ki>
69

$$$$
>  <compound>
C[C@H](NC(=O)[C@H](Cc1cnc[nH]1)NC(=O)[C@H](C)NC(=O)[C@H](CCCCN)NC(=O)[C@H](Cc1ccc(O)cc1)NC(=O)[C@@H]1CCCN1C(=O)[C@H](Cc1cnc[nH]1)NC(=O)/C=N/OCc1ccc(S(N)(=O)=O)cc1)C(=O)N[C@@H](Cc1cnc[nH]1)C(N)=O (X1-HPYKAHAH-NH2)

>  <readout.unit>
nM

>  <Ki>
358

$$$$
>  <compound>
[N-]=[N+]=NCC(=O)NCCc1ccc(S(N)(=O)=O)cc1

>  <readout.unit>
nM

>  <Ki>
1200

$$$$

Cited source: ChEMBL document CHEMBL5260857
